What follows is a collection of pKi values obtained with Cathepsin B (Bos taurus).
pKi: −log10 of the molar value.
measuredMetric: pKi

>>> print(df.to_string())
                                   molecule  measurednumber
0  CCCCCCCCNC(=O)C(=O)C(CC)NC(=O)C(CC(C)C)NC(=O)OCc1ccccc1 (centres undefined)            5.59
1  CCCNC(=O)C(=O)C(Cc1ccccc1)NC(=O)C(CC(C)C)NC(=O)OCc1ccccc1 (centres undefined)            5.52
2  CCOC(=O)C(=O)[C@H](CC)NC(=O)[C@H](CC(C)C)NC(=O)[C@H](CC(C)C)NS(=O)(=O)c1ccc2ccccc2c1            4.60
3  CCC(NC(=O)C(CC(C)C)NC(=O)OCc1ccccc1)C(=O)C(=O)NCC(C)C (centres undefined)            5.40

I. CCOC(=O)C(=O)C(CC)NC(=O)C(CC(C)C)NC(=O)CCC(C)Cc1ccccc1 (centres undefined)
II. CC(C)CNC(=O)C(=O)C(Cc1ccccc1)NC(=O)C(CC(C)C)NC(=O)OCc1ccccc1 (centres undefined)
III. CCCNC(=O)C(=O)C(CC)NC(=O)C(CC(C)C)NC(=O)OCc1ccccc1 (centres undefined)
Input line: // sort entries: pKi, high to low Please write the labels in the order that was asked for.
Output line: II, III, I
(II: 5.40, III: 5.10, I: 4.62)

A. CC(C)CC(NC(=O)OCc1ccccc1)C(=O)NC(Cc1ccccc1)C(=O)C(=O)NCc1ccccc1 (centres undefined)
B. CCC(NC(=O)C(CC(C)C)NC(=O)OCc1ccccc1)C(=O)C(=O)N(Cc1ccccc1)Cc1ccccc1 (centres undefined)
C. CCOC(=O)C(=O)[C@H](CC)NC(=O)[C@H](CC(C)C)NC(=O)[C@H](CC(C)C)NS(=O)(=O)c1ccc(C)cc1
Input line: Rank descending by pKi. Order the labels as requested and give them as your answer.
Output line: A, B, C
(A: 5.34, B: 4.51, C: 4.16)

a. CCC(=O)C(=O)[C@H](CC)NC(=O)[C@H](CC(C)C)NC(=O)[C@H](CC(C)C)NC(=O)OCc1ccccc1
b. CCC(NC(=O)C(CC(C)C)NC(=O)OCc1ccccc1)C(=O)C(=O)NCC(c1ccccc1)c1ccccc1 (centres undefined)
Input line: Just curious, which one has the larger pKi reading, a or b ? Reply briefly: the label of your chosen item.
Output line: b
(b: 5.52, a: 4.66)

A. CCOC(=O)C(=O)C(CC)NC(=O)C(CC(C)C)NC(=O)CCCc1ccccc1 (centres undefined)
B. CCOC(=O)C(=O)[C@H](Cc1ccccc1)NC(=O)[C@H](CC(C)C)NC(=O)[C@H](CC(C)C)NC(=O)OCc1ccccc1
Input line: For the pair A and B , which entry has the numerically smaller recorded pKi? # respond with the chosen item's label
Output line: B

---

biological target: Calpain 1 (Homo sapiens, UniProt P07384); experiment: Inhibitory activity of alpha-keto esters towards calpain 1 at pH 8.0.
Sequence (P04632 whole entry): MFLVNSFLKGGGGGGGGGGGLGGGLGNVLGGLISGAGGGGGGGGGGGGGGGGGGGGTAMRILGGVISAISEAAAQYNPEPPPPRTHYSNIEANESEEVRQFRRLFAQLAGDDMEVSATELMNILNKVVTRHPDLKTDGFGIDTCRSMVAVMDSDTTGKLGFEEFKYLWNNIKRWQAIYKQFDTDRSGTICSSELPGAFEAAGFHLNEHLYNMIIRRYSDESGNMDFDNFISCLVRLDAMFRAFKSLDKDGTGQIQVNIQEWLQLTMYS
Sequence (P07384 whole entry): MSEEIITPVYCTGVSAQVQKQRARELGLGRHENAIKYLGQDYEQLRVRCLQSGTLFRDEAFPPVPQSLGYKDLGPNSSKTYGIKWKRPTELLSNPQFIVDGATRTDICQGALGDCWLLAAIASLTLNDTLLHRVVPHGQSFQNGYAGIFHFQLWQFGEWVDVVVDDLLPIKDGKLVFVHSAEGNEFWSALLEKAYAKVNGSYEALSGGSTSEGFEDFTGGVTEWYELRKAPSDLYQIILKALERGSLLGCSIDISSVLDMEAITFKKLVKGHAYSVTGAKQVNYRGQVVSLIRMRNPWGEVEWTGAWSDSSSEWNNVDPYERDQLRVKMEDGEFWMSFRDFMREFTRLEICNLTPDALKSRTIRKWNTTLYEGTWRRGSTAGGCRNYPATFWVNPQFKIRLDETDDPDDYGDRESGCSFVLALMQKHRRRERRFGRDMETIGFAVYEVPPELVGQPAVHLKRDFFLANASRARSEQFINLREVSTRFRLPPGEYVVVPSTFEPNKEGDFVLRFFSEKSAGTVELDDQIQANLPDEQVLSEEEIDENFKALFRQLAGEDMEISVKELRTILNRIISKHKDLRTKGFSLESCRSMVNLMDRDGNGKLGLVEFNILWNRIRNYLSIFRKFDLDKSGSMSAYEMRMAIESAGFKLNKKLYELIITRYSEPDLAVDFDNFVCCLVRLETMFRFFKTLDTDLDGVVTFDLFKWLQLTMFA
pKi: −log10 of the molar value.
measuredMetric: pKi

Past entries and their recorded results:
>>> print(df.to_string())
                                   molecule  measurednumber
0  CCN(CC)C(=O)C(=O)C(Cc1ccccc1)NC(=O)C(CC(C)C)NC(=O)OCc1ccccc1 (centres undefined)            4.12
1  CCC(NC(=O)C(CC(C)C)NC(=O)OCc1ccccc1)C(=O)C(=O)NCC(c1ccccc1)c1ccccc1 (centres undefined)            6.80
2  CCOC(=O)C(=O)C(Cc1ccccc1)NC(=O)C(CC(C)C)NC(=O)OCc1ccccc1 (centres undefined)            5.74
3  CCOC(=O)C(=O)C(CC)NC(=O)C(CC(C)C)NC(=O)OCc1ccccc1 (centres undefined)            5.35
4  CCCCOC(=O)C(=O)C(CC)NC(=O)C(CC(C)C)NC(=O)OCc1ccccc1 (centres undefined)            5.74
5  CCCC(NC(=O)C(CC(C)C)NC(=O)OCc1ccccc1)C(=O)C(=O)OCC (centres undefined)            5.85

1. CCC(NC(=O)C(CC(C)C)NC(=O)OCc1ccccc1)C(=O)C(N)=O (centres undefined)
2. CCCC(NC(=O)C(CC(C)C)NC(=O)OCc1ccccc1)C(=O)C(N)=O (centres undefined)
Input line: Lower value for measured pKi? Options: 1 , 2 To answer, give the label that identifies your chosen option.
Output line: 1
(1: 6.55, 2: 7.16)

---

molecular target: Calpain 1 (Homo sapiens); assay: Inhibitory activity of alpha-keto esters towards calpain 1 at pH 8.0.
pKi: −log10 of the molar value.
measuredMetric: pKi

Before answering, review these 8 worked examples.
>>> df
                                   compound  measurednumber
0  CCOC(=O)C(=O)C(CC)NC(=O)C(CC(C)C)NC(=O)C(CC)Oc1ccccc1 (stereo not drawn)            4.70
1  CCOC(=O)C(=O)C(CCSC)NC(=O)C(CC(C)C)NC(=O)OCc1ccccc1 (stereo not drawn)            6.00
2  CCC(NC(=O)C(CC(C)C)NC(=O)OCc1ccccc1)C(=O)C(=O)OCc1ccccc1 (stereo not drawn)            5.02
3  CCOC(=O)C(=O)[C@H](CC)NC(=O)[C@H](CC(C)C)NC(=O)[C@H](CC(C)C)NS(=O)(=O)c1ccc2ccccc2c1            4.80
4  CCOC(=O)C(=O)[C@H](Cc1ccccc1)NC(=O)[C@H](CC(C)C)NC(=O)[C@H](CC(C)C)NC(=O)OCc1ccccc1            5.85
5  CCNC(=O)C(=O)C(CC)NC(=O)C(CC(C)C)NC(=O)OCc1ccccc1 (stereo not drawn)            6.60
6  CCCCNC(=O)C(=O)C(Cc1ccccc1)NC(=O)C(CC(C)C)NC(=O)OCc1ccccc1 (stereo not drawn)            6.30
7  CCCNC(=O)C(=O)C(Cc1ccccc1)NC(=O)C(CC(C)C)NC(=O)OCc1ccccc1 (stereo not drawn)            4.82

1. CC(C)CC(NC(=O)OCc1ccccc1)C(=O)NC(Cc1ccccc1)C(=O)C(=O)NCCc1ccccc1 (stereo not drawn)
2. CCC(=O)C(=O)[C@H](CC)NC(=O)[C@H](CC(C)C)NC(=O)[C@H](CC(C)C)NC(=O)OCc1ccccc1
3. CCCCNC(=O)C(=O)C(CC)NC(=O)C(CC(C)C)NC(=O)OCc1ccccc1 (stereo not drawn)
4. CCC(NC(=O)C(CC(C)C)NC(=O)OCc1ccccc1)C(=O)C(=O)NCCCCc1ccccc1 (stereo not drawn)
5. CCOC(=O)C(=O)[C@H](CC)NC(=O)[C@H](CC(C)C)NC(=O)[C@H](CC(C)C)NS(=O)(=O)c1ccc(C)cc1
Input line: Form: Sort by [pKi] Order [ ascending ] # answer = labels listed in requested order
Output line: 5, 2, 4, 3, 1

P. CCC(NC(=O)C(CC(C)C)NC(=O)OCc1ccccc1)C(=O)C(=O)O (stereo not drawn)
Q. CCC(C)NC(=O)C(=O)C(CC)NC(=O)C(CC(C)C)NC(=O)OCc1ccccc1 (stereo not drawn)
Input line: Thinking about recorded pKi values, which is higher, P or Q ? Lab note: record the label of whichever item you select.
Output line: P
(P: 7.12, Q: 5.70)

I. CCC(NC(=O)C(CC(C)C)NC(=O)OCc1ccccc1)C(=O)C(=O)NCCc1ccccc1 (stereo not drawn)
II. CCOC(=O)C(=O)[C@H](CC)NC(=O)[C@H](CC(C)C)NC(=O)[C@H](CC(C)C)NC(=O)c1ccc2ccccc2c1
Input line: Please tell me which of the two, I or II , has the higher reported pKi value. The response must carry the label of the picked entry.
Output line: I

---

Dear all, this message contains Ki results, target or system Papain (Carica papaya, UniProt P00784).
measuredMetric: Ki (µM)

Use these answered entries as a reference point.
>>> df
                                   compound                              testsystem  valueunit  measurednumber
0  CCC(NC(=O)C(CC(C)C)NC(=O)OCc1ccccc1)C(=O)C(N)=O (stereo unspecified)  Papain (Carica papaya, UniProt P00784)         µM             190
1  CC(C)CC(NC(=O)OCc1ccccc1)C(=O)NC(Cc1ccccc1)C(=O)C(=O)NCCc1ccccc1 (stereo unspecified)  Papain (Carica papaya, UniProt P00784)         µM             100
2  CCOC(=O)C(=O)[C@H](Cc1ccccc1)NC(=O)[C@H](CC(C)C)NC(=O)[C@H](CC(C)C)NC(=O)OCc1ccccc1  Papain (Carica papaya, UniProt P00784)         µM              15
3  CCOC(=O)C(=O)C(Cc1ccccc1)NC(=O)C(CC(C)C)NC(=O)OCc1ccccc1 (stereo unspecified)  Papain (Carica papaya, UniProt P00784)         µM              75

A. CC(C)CC(NC(=O)OCc1ccccc1)C(=O)NC(Cc1ccccc1)C(=O)C(=O)OCc1ccccc1 (stereo unspecified)
B. CCOC(=O)C(=O)C(CCSC)NC(=O)C(CC(C)C)NC(=O)OCc1ccccc1 (stereo unspecified)
Input line: For this pair, A and B , which shows a numerically higher Ki? State your choice using its label.
Output line: B
(B: 140 µM, A: 45 µM)
